target of assay: Nicotinic acetylcholine receptor (Rattus norvegicus, UniProt P09483+P12390)
Construct: the rat was decapitated, and the whole brain was removed and homogenized; from tissue; host or cells: rat whole brain membrane fraction
Sequence (P09483 31-630): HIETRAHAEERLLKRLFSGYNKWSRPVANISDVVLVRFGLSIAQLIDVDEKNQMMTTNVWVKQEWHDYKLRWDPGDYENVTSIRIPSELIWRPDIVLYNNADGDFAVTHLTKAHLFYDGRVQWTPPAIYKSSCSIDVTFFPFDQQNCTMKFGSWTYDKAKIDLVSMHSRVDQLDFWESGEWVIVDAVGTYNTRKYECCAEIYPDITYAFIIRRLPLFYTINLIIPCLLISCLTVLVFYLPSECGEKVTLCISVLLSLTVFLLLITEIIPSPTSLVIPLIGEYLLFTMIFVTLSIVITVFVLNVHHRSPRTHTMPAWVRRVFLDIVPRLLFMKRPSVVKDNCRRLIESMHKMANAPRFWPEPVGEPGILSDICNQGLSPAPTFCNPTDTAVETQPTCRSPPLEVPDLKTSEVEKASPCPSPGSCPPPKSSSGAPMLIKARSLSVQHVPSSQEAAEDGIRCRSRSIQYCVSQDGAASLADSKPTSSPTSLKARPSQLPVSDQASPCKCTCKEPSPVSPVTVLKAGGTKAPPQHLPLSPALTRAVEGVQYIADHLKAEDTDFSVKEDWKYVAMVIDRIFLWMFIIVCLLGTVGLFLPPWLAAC
Sequence (P12390 25-500): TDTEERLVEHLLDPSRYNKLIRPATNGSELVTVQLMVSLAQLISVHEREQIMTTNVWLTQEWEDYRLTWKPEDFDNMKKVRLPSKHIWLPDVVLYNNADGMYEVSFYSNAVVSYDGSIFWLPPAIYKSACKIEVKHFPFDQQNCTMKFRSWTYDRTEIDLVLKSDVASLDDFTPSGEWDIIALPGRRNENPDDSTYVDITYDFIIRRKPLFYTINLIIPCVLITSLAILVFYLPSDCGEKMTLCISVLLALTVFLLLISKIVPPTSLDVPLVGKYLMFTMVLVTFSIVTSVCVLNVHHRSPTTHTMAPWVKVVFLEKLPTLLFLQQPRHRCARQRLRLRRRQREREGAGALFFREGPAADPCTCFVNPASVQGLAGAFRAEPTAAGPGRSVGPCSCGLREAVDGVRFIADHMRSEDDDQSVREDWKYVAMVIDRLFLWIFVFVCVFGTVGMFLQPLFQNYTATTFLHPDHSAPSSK
particulars: 10 nM of the test drug; 1 nM of ^3H-cytidine; rat whole brain membrane fraction; 4°C for 75 min; nonspecific binding with 10 µM (-)nicotine
measure: Inhibition of ^3H-Cytidine binding (%)
Give your result in % as a bare value.

Data request: Fill in the blank: the reported Inhibition of ^3H-Cytidine binding of c1cncc(C2CC3CC2CN3)c1 (stereo not drawn) is ____.
Data returned: 87

* * *

target of assay: Nicotinic acetylcholine receptor (Rattus norvegicus, UniProt P09483+P12390)
Construct: the rat was decapitated, and the whole brain was removed and homogenized; from tissue; host or cells: rat whole brain membrane fraction
particulars: 10 nM of the test drug; 1 nM of ^3H-cytidine; rat whole brain membrane fraction; 4°C for 75 min; nonspecific binding with 10 µM (-)nicotine
Procedure: Nicotinic acetylcholine receptor binding assay The membrane fraction was prepared in accordance with the protocol described in Brain Res., 100, 81-87 (1977). […] The receptor binding experiment was performed in accordance with the protocol described in J. Pharamcol. […] The filter paper was recovered, 4 ml of ACS-II (Amersham, TM) was added, and the ^3H radioactivity was determined with a scintillation counter. […]
measure: Inhibition of ^3H-Cytidine binding (%)
Give your result in % as a bare value.

>>> measured("C#Cc1cncc(C2CC3CCC2NC3)c1 (centres unmarked)")
91
>>> measured("C1=C(c2cnccn2)C2CCC1CN2 (centres unmarked)")
39
>>> measured("c1cncc(C2CC3CCCC2NC3)c1 (centres unmarked)")
84
>>> measured("c1cncc(C2CC3CCC2NC3)c1 (centres unmarked)")
94
>>> measured("Brc1cncc(C2=CC3CCC2CN3)c1 (centres unmarked)")
92

Data request: Fill in the blank: the reported Inhibition of ^3H-Cytidine binding of c1ncc(C2CC3CCC2NC3)cn1 (centres unmarked) is ____.
Data returned: 93

Data request: Fill in the blank: the reported Inhibition of ^3H-Cytidine binding of Cc1cc(C2CC3CCC2NC3)on1 (centres unmarked) is ____.
Data returned: 84

Data request: Fill in the blank: the reported Inhibition of ^3H-Cytidine binding of c1ccc(-c2cncc(C3CC4CCC3NC4)c2)cc1 (centres unmarked) is ____.
Data returned: 86
